System: Plasmodium berghei
protocol: Antimalarial activity was measured against mice (Mus musculus) infected with Plasmodium berghei by subcutaneous administration of 160 mg/kg dose
Type: organism-based
Parameters: dose 160 mg/kg, route subcutaneous
assay-context: in vivo, sc
outcome-measure: No. of toxic deaths

1) CC1/C(=N\CCCN(C)C)c2c(n(O)c3ccc(Cl)cc3c2=O)CC1c1ccc(C(F)(F)F)cc1 (stereo unspecified): 5
2) COc1ccccc1C1C/C(=N\CCCN(C)C)c2c(n(O)c3ccc(Cl)cc3c2=O)C1 (stereo unspecified): 5
3) CN(C)CCC/N=C1\CC(c2ccccc2Cl)Cc2c1c(=O)c1cc(Cl)ccc1n2O (stereo unspecified): 1
4) O=c1c2c(n(O)c3ccc(Cl)cc13)CC(c1cccc(C(F)(F)F)c1)C/C2=N\CCCCCN1CCCC1 (stereo unspecified): 5
5) CN(C)CCC/N=C1\CC(c2ccc(C(F)(F)F)cc2)Cc2c1c(=O)c1cc(Cl)ccc1n2O (stereo unspecified): 2
6) O=C1CC(c2ccc(Cl)cc2Cl)Cc2nc3c(Cl)cccc3c(O)c21 (stereo unspecified): 2
7) CN(C)CCC/N=C1\CC(c2ccc(Cl)cc2Cl)Cc2nc3c(Cl)cccc3c(O)c21 (stereo unspecified): 5
8) CCN(CC)CC/N=C1\CC(c2ccc(C(F)(F)F)cc2)Cc2c1c(=O)c1cc(Cl)ccc1n2O (stereo unspecified): 1
9) CN(C)CCC/N=C1\CC2(CCCCC2)Cc2c1c(=O)c1cc(Cl)ccc1n2O: 5
10) CCn1c2c(c(=O)c3cc(Cl)ccc31)C(=O)CC(c1ccc(C(F)(F)F)cc1)C2 (stereo unspecified): 2
11) CN(C)CCC/N=C1\CC(c2ccc(C(F)(F)F)cc2)Cc2nc3ccc(F)cc3c(O)c21 (stereo unspecified): 4
12) CN(C)CCC/N=C1\CC(c2ccc(C(F)(F)F)cc2)Cc2nc3ccccc3c(O)c21 (stereo unspecified): 5
13) CN(C)CCC/N=C1\CC(c2ccc(C(F)(F)F)cc2)Cc2nc3ccc(Cl)cc3c(O)c21 (stereo unspecified): 1
14) CN(C)CCC/N=C1\CC(c2ccc(C(F)(F)F)cc2)Cc2nc3cc(Cl)ccc3c(O)c21 (stereo unspecified): 5
15) O=C1CC(c2ccc(C(F)(F)F)cc2)Cc2c1c(=O)c1cc(Cl)c(F)cc1n2O (stereo unspecified): 5
16) CCc1ccc2nc3c(c(O)c2c1)/C(=N/CCCN(C)C)CC(c1ccc(C(F)(F)F)cc1)C3 (stereo unspecified): 1
17) O=c1c2c(n(O)c3ccc(Cl)cc13)CC(c1cccc(C(F)(F)F)c1)C/C2=N\CCCCN1CCCC1 (stereo unspecified): 5
18) CCN(CC)CCC/N=C1\CC(c2ccc(C(F)(F)F)cc2)Cc2c1c(=O)c1cc(Cl)ccc1n2O (stereo unspecified): 3
19) O=c1c2c(n(O)c3ccc(Cl)cc13)CC(c1cccc(C(F)(F)F)c1)C/C2=N\CCCCCCN1CCCCC1 (stereo unspecified): 3
20) CCCC/N=C1\CC(c2ccc(Cl)c(Cl)c2)Cc2nc3ccc(Cl)cc3c(O)c21 (stereo unspecified): 5
21) O=C(O)c1ccc(C2CC(=O)c3c(n(O)c4ccc(Cl)cc4c3=O)C2)cc1 (stereo unspecified): 1

###

Tested on: Plasmodium berghei
protocol: Antimalarial activity was measured against mice (Mus musculus) infected with Plasmodium berghei by subcutaneous administration of 320 mg/kg dose
Format: organism-based
Parameters: dose 320 mg/kg, route subcutaneous
assay-context: in vivo, sc
Measured No. of toxic deaths, listed per entry for reference.
outcome-measure: No. of toxic deaths

1) CCN(CC)CCCC(C)/N=C1\CC(c2ccc(C(F)(F)F)cc2)Cc2nc3ccc(Cl)cc3c(O)c21 (stereo unspecified): 2
2) CN(C)CCC/N=C1\CC(c2ccc(Cl)cc2Cl)Cc2nc3c(Cl)cccc3c(O)c21 (stereo unspecified): 5
3) O=c1c2c(n(O)c3ccc(Cl)cc13)CC(c1cccc(C(F)(F)F)c1)C/C2=N\CCCCN1CCCC1 (stereo unspecified): 4
4) O=c1c2c(n(O)c3ccc(Cl)cc13)CC(c1cccc(C(F)(F)F)c1)C/C2=N\CCCCCCN1CCCCC1 (stereo unspecified): 5
5) CN(C)CCC/N=C1\CC(c2ccc(C(F)(F)F)cc2)Cc2nc3cc(Cl)ccc3c(O)c21 (stereo unspecified): 5
6) CN(C)CCC/N=C1\CC(c2ccc(C(F)(F)F)cc2)Cc2nc3ccc([N+](=O)[O-])cc3c(O)c21 (stereo unspecified): 2
7) O=c1c2c(n(O)c3ccc(Cl)cc13)CC(c1ccc(C(F)(F)F)cc1)C/C2=N\CCCNCCO (stereo unspecified): 1
8) O=C1CC(c2ccc(C(F)(F)F)cc2)Cc2c1c(=O)c1cc(Cl)c(F)cc1n2O (stereo unspecified): 5
9) CN(C)CCC/N=C1\CC(c2ccc(C(F)(F)F)cc2)Cc2nc3ccc(Cl)cc3c(O)c21 (stereo unspecified): 2
10) C=CCNCC/N=C1\CC(c2ccc(C(F)(F)F)cc2)Cc2c1c(=O)c1cc(Cl)ccc1n2O (stereo unspecified): 5
11) CC1/C(=N\CCCN(C)C)c2c(n(O)c3ccc(Cl)cc3c2=O)CC1c1ccc(C(F)(F)F)cc1 (stereo unspecified): 5

###

Test system: Plasmodium berghei
protocol: Antimalarial activity in Plasmodium berghei infected mice (Mus musculus) after 320 mg/kg subcutaneous dose
Assay type: functional
outcome-measure: Delta mean survival time

1) CN(C)CCC/N=C1\CC(c2ccc(Cl)cc2Cl)Cc2nc3c(Cl)ccc(Cl)c3c(O)c21 (stereo not given): 0
2) O=c1c2c(n(O)c3ccc(Cl)cc13)CC(c1cccc(C(F)(F)F)c1)C/C2=N\C1CCN(Cc2ccccc2)CC1 (stereo not given): 8.4
3) CCN1CCCC(/N=C2\CC(c3ccc(Cl)c(Cl)c3)Cc3c2c(=O)c2cc(Cl)ccc2n3O)C1 (stereo not given): 8.8
4) O=C1CC(C2CCCCC2)Cc2c1c(=O)c1cc(Cl)ccc1n2O (stereo not given): 6.5
5) CN(C)CCC/N=C1\CC(c2c(Cl)cccc2Cl)Cc2c1c(=O)c1cc(Cl)ccc1n2O (stereo not given): 7.2

###

System: Plasmodium berghei
protocol: Antimalarial activity in Plasmodium berghei infected mice (Mus musculus) after subcutaneous 320 mg/kg dose
Format: functional
Measured No. of cured mice, listed per entry for reference.
outcome-measure: No. of cured mice

1. CN(C)CCC/N=C1\CC(c2ccc(Cl)cc2Cl)Cc2nc3cc(Cl)ccc3c(O)c21 (centres undefined): 5
2. CCN(CC/N=C1\CC(c2ccc(Cl)c(Cl)c2)Cc2c1c(=O)c1cc(Cl)ccc1n2O)CC(C)(C)O (centres undefined): 5
3. CCN(CC)CC(C)(C)C/N=C1\CC(c2ccc(C(F)(F)F)cc2)Cc2nc3ccc(Cl)cc3c(O)c21 (centres undefined): 4
4. CN(C)CCC/N=C1\CC(c2ccc(Cl)cc2Cl)Cc2nc3ccc(Cl)cc3c(O)c21 (centres undefined): 5
5. CCN(CC)CCCC(C)/N=C1\CC(c2ccc(Cl)cc2Cl)Cc2nc3ccc(Cl)cc3c(O)c21 (centres undefined): 5
6. O=C1CC(c2ccccc2)Cc2c1c(=O)c1cc(Cl)ccc1n2O (centres undefined): 2
7. CC1/C(=N\CCCN(C)C)c2c(nc3ccc(Cl)cc3c2O)CC1c1ccc(C(F)(F)F)cc1 (stereo in doubt; trans): 4
8. CCN(CC)CC/N=C1\CC(c2ccc(C(F)(F)F)cc2)Cc2c1c(=O)c1cc(Cl)ccc1n2O (centres undefined): 4
9. OCCNCC/N=C1\CC(c2ccc(Cl)cc2Cl)Cc2nc3ccc(Cl)cc3c(O)c21 (centres undefined): 5

###

Tested on: Plasmodium berghei
protocol: Antimalarial activity in Plasmodium berghei infected mice (Mus musculus) after subcutaneous 320 mg/kg dose
Assay type: functional
outcome-measure: No. of cured mice

1. CN(C)CCC/N=C1\CC(c2cccc(C(F)(F)F)c2)Cc2c1c(=O)c1cc(Cl)ccc1n2O (centres undefined): 5
2. O=c1c2c(n(O)c3ccc(Cl)cc13)CC(c1cccc(C(F)(F)F)c1)C/C2=N\CCN1CCCC1 (centres undefined): 5
3. CC1/C(=N\CCCN(C)C)c2c(n(O)c3ccc(Cl)cc3c2=O)CC1c1ccc(Cl)cc1Cl (centres undefined): 4
4. O=C1CC(c2ccc(F)cc2)Cc2c1c(=O)c1cc(Cl)ccc1n2O (centres undefined): 5
5. COc1ccc2nc3c(c(O)c2c1)/C(=N/CCCN(C)C)CC(c1ccc(C(F)(F)F)cc1)C3 (centres undefined): 5
6. CN(C)CCC/N=C1\CC(c2cccc(Br)c2)Cc2c1c(=O)c1cc(Cl)ccc1n2O (centres undefined): 2
7. CCN(CC)CCC/N=C1\CC(c2ccc(C(F)(F)F)cc2)Cc2c1c(=O)c1cc(Cl)ccc1n2O (centres undefined): 2
8. CC(C)CN(CC/N=C1\CC(c2ccc(Cl)c(Cl)c2)Cc2c1c(=O)c1cc(Cl)ccc1n2O)CC(C)C (centres undefined): 1
9. CCCCCCC/N=C1\CC(c2ccc(C(F)(F)F)cc2)Cc2c1c(=O)c1cc(Cl)ccc1n2O (centres undefined): 3
